Assay: Ex vivo biodistribution in mice with MM1S tumor xenografts
Conditions: both sexes, NSG, mouse, lung, 80 µCi, total radioactivity, 5 min p.i.; MM1S xenograft mice; read-out: uptake in lung
Method: […] Mice with 100–200 mm^3 tumor volume were used for ex vivo biodistribution studies. For radiotracer pharmacokinetics studies, mice with MOLP8 tumor xenografts received ≈80 µCi (2.96 MBq) [^68Ga]Ga‐AJ206 and were sacrificed at pre‐determined time points (5, 30, 60 and 120 min). Similarly, for dosimetry study, mice with MM1S tumor xenografts received ≈80 µCi (2.96 MBq) of [^68Ga]Ga‐AJ206 and were sacrificed at pre‐determined time points (5, 30, 60, 90 and 120 min). […]
outcome-measure: tissue uptake at 5 min
// return the numeric value with its unit appended

IN: For CC[C@H](C)[C@@H]1NC(=O)[C@@H]2CCCN2C(=O)[C@H](Cc2ccccc2)NC(=O)[C@H](CC(=O)O)NC(=O)[C@H](C)NC(=O)[C@@H]2CSCc3cc(cc(c3)CSC[C@H](NC(=O)[C@H](C)NC(=O)CCOCCOCCOCCNC(=O)CN3CCN(CC(=O)O)CCN(CC(=O)O)CC3)C(=O)N[C@@H](C(C)C)C(=O)N3CCC[C@H]3C(=O)N2)CSC[C@@H](C(N)=O)NC(=O)[C@H](Cc2ccc(O)cc2)NC(=O)[C@H](Cc2c[nH]c3ccccc23)NC1=O [[^68Ga]Ga‐AJ206, metal not drawn] , what is its reported tissue uptake at 5 min?
OUT: 10.2 %ID/g
